tested-target: E. coli GroEL/ES (Escherichia coli, UniProt P0A6F5)
Sequence (P0A6F5 whole entry, looked up): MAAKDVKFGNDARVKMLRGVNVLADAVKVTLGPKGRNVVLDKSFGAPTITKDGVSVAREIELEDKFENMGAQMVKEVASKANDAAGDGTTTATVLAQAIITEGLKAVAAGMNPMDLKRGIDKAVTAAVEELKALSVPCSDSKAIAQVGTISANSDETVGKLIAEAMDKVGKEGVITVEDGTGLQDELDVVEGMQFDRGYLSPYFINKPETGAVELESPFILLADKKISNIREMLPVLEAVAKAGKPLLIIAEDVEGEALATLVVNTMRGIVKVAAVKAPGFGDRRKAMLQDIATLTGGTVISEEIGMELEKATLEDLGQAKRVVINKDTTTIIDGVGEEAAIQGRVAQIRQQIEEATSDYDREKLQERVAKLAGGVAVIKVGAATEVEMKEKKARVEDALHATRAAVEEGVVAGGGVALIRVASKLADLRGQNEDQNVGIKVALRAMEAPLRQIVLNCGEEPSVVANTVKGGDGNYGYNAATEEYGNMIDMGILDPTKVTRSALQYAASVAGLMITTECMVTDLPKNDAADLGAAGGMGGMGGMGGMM
method: Inhibition of Escherichia coli GroEL/GroES expressed in Escherichia coli DH5alpha/BL21 (DE3) assessed as inhibition of denatured MDH refolding preincubated for 10 mins followed by ATP addition measured after 20 to 40 mins by fluorescence based assay
Please assign False whenever IC50 is at or above 20 µM, and True whenever it is below.

# mol-smiles, category-label
data = [
    ("O=S(=O)(Nc1ccc(-c2nc3cc(NS(=O)(=O)c4cccc(Cl)c4)ccc3o2)cc1)c1cccc(Cl)c1", "True"),
    ("COC(=O)c1cccc(S(=O)(=O)Nc2ccc(-c3nc4cc(NS(=O)(=O)c5cccc(C(=O)OC)c5)ccc4o3)cc2)c1", "True"),
    ("O=S(=O)(Nc1ccc(-c2nc3cc(NS(=O)(=O)c4cccc(F)c4)ccc3o2)cc1)c1cccc(F)c1", "True"),
    ("COc1ccc(S(=O)(=O)Nc2ccc(-c3nc4cc(NS(=O)(=O)c5ccc(OC)cc5)ccc4o3)cc2)cc1", "False"),
    ("O=[N+]([O-])c1cccc(S(=O)(=O)Nc2ccc(-c3nc4cc(NS(=O)(=O)c5cccc([N+](=O)[O-])c5)ccc4o3)cc2)c1", "True"),
    ("COc1ccccc1S(=O)(=O)Nc1ccc(-c2nc3cc(NS(=O)(=O)c4ccccc4OC)ccc3o2)cc1", "False"),
    ("O=S(=O)(Nc1ccc(-c2nc3cc(NS(=O)(=O)c4ccccc4Br)ccc3o2)cc1)c1ccccc1Br", "False"),
    ("N=C(N)c1ccc(OCCCCCOc2ccc(C(=N)N)cc2)cc1", "False"),
]

Q. Item Nc1cccc(S(=O)(=O)Nc2ccc(-c3nc4cc(NS(=O)(=O)c5cccc(N)c5)ccc4o3)cc2)c1 : IC50 beneath 20 µM, strictly?
A. True

Q. Item O=S(=O)(Nc1ccc(-c2nc3cc(NS(=O)(=O)c4cccc5nsnc45)ccc3o2)cc1)c1cccc2nsnc12 : IC50 beneath 20 µM, strictly?
A. False

Q. Item O=c1ccc2cc(S(=O)(=O)Nc3ccc(-c4nc5cc(NS(=O)(=O)c6ccc7oc(=O)ccc7c6)ccc5o4)cc3)ccc2o1 : IC50 beneath 20 µM, strictly?
A. True

Q. Item O=S(=O)(Nc1ccc(-c2nc3cc(NS(=O)(=O)c4ccccc4O)ccc3o2)cc1)c1ccccc1O : IC50 beneath 20 µM, strictly?
A. True

Q. Item O=S(=O)(Nc1ccc(-c2nc3cc(NS(=O)(=O)c4ccc(Br)cc4)ccc3o2)cc1)c1ccc(Br)cc1 : IC50 beneath 20 µM, strictly?
A. False

Q. Item O=S(=O)(Nc1ccc(-c2nc3cc(NS(=O)(=O)c4ccccc4)ccc3o2)cc1)c1ccccc1 : IC50 beneath 20 µM, strictly?
A. True

Q. Item O=S(=O)(Nc1ccc(-c2nc3cc(NS(=O)(=O)c4ccccc4Cl)ccc3o2)cc1)c1ccccc1Cl : IC50 beneath 20 µM, strictly?
A. False

Q. Item N#Cc1ccc(S(=O)(=O)Nc2ccc(-c3nc4cc(NS(=O)(=O)c5ccc(C#N)cc5)ccc4o3)cc2)cc1 : IC50 beneath 20 µM, strictly?
A. False

====

method: Cytotoxicity against human THLE3 cells assessed as reduction in cell viability after 48 hrs by alamar blue assay
Format: toxicity, cell-based
parameter-measured: EC50 at 48 h

In the examples that follow, each entry is paired with its recorded EC50 at 48 h.
# compound, EC50 at 48 h
measured = [
    ("O=S(=O)(Nc1ccc(-c2nc3cc(NS(=O)(=O)c4cccs4)ccc3o2)cc1)c1cccs1", "44 µM"),
    ("CC1CS(=O)(=O)CCN1/N=C/c1ccc([N+](=O)[O-])o1 (stereo not given)", "> 100 µM"),
]

Q. Name the recorded EC50 at 48 h for O=C(O)c1cccc(S(=O)(=O)Nc2ccc(-c3nc4cc(NS(=O)(=O)c5cccc(C(=O)O)c5)ccc4o3)cc2)c1 .
A. > 100 µM

Q. Name the recorded EC50 at 48 h for O=S(=O)(Nc1ccc(-c2nc3cc(NS(=O)(=O)c4ccc(O)cc4)ccc3o2)cc1)c1ccc(O)cc1 .
A. 41 µM

Q. Name the recorded EC50 at 48 h for CCCS(=O)(=O)Nc1ccc(-c2nc3cc(NS(=O)(=O)CCC)ccc3o2)cc1 .
A. > 100 µM
